Every entry's value here was drawn from patent US20250250292A1.

Test system: MRC5 fibroblast cells
Assay: Cel Titer Glo cytotoxicity in MRC5 cells
Format: cell-based
Conditions: Homo sapiens; Table 2, cytotoxicity in MRC5 fibroblast cells
quantity-measured: IC50 (µM)
State just the number; it will be interpreted in µM.

[Q] Give IC50 for the following compound: CC(C)C[C@H](NC(=O)[C@H](Cc1ccccc1)NC(=O)c1cnccn1)B(O)O [PS-341, bortezomib]
[A] 0.0003

[Q] Give IC50 for the following compound: C=C[C@]1(C)C[C@@H](OC(=O)COC(=O)c2ccc(C[P+](c3ccccc3)(c3ccccc3)c3ccccc3)cc2)[C@]2(C)CC[C@@H](C)[C@@]3(CCC(=O)[C@@H]23)[C@@H](C)[C@@H]1O [AP-8-159B]
[A] 4.67
